tested on: MS2 coat protein; test: apparent KD of MS2 coat protein; designed switch direction (-1 OFF switch, 1 ON switch): -1; higher = weaker reporter binding; settings: input ligand: none
Reported apparent KD of MS2 coat protein is given for each of the following sequences.
Respond numerically; units are nM and should not be typed.

# count of solved cases: 5
QUERY_SEQUENCE	MEASURED_TARGET	apparent KD of MS2 coat protein, nM
AUGCCGGUCCUCUCAGGUGUACAUGAGGAUCACCCAUGUCACGAGGAUAUCUAAGCGUGGUGGCCAGAGAAGGUGUGACAUGCU [Atibequ] (Eterna round: R96, puzzle: Exclusion NG 3)	MS2 coat protein	22.8
GGCGAGGGAGGAUAUACGUGAUUGAUGCCGGGAACCCAGAGACAUGAGGAUCACCCAUGUAGAAGGCCCGGCUA [EX2 B.4] (Eterna round: R97, puzzle: Exclusion 2)	MS2 coat protein	14.5
UGACGAGUAGGAUAUUGGACUUGCGACAUGAGGAUCACCCAUGUGACGUCAACGUGGCACCAAGAAGGGCUACGUC [Gelareusdi] (Eterna round: R96, puzzle: Exclusion 5)	MS2 coat protein	63.3
AGAGUGCUGCGAGGAUAUACAUGAGGAUCACCCAUGUGGAUCUGUGAGGCUUUGCCUCACAGGAUGUAGAAGGCGCAGUACUCA [Mat - Exclusion NG 2 - Mod of JL - D48] (Eterna round: R96, puzzle: Exclusion NG 2)	MS2 coat protein	25.4
UAAGAGUAUGUUAGGAUAUGCUGGUCCUUGGAUCAGCAGAAGGAACAUGAGGAUCACCCAUGUAGAAUCUUUUA [Mod of JL 17 - Jieux - Brourd's mod of Exclusion 4] (Eterna round: R97, puzzle: Brourd's mod of Exclusion 4)	MS2 coat protein	21.3

Query apparent KD of MS2 coat protein on MS2 coat protein for UGUACUAACACGAUAGUGUUAGUACUAUAAGCUUGUGUUACAUGAGGAUCACCCAUGUCCUCAUAAGCUCGUCUUGA [Mat - Sensor v3 - Turn-off var 2 - D93] (Eterna round: R96, puzzle: Sensor v3, turn-off variant 2)
38.9

Could you do the same for UUGGCAGGUUUUUUGCUCGACAUGAGGAUCACCCAUGUUGCGUGGGUUGUGUGUGUGCGGUGUAUAUAUAUGGUCCU [-24.8, -48.1 kcal, A 14%] (Eterna round: R97, puzzle: Sensor, turn-off variant 1) , please?
644

Could you do the same for CAUGGAUGUGAGCCGCAUUACAUGAGGAUCACCCAUGUCAACAAGCUUUUUGCUUGUCUUACGCGGCGGCACCAGAA [Getelexe] (Eterna round: R96, puzzle: Sensor v3, turn-off variant 1) , please?
14.9

Could you do the same for GCCCUCACAGUGAGGAUAUCUGAGCAUCCCGCUAAGGAGAAGGCACAUGAGGAUCACCCAUGUAAUUGGUUUAA [BmEX4 A.22] (Eterna round: R97, puzzle: Brourd's mod of Exclusion 4) , please?
39.8

Could you do the same for UUGACGUCGUCAGGAUAUAGUUUUAAUGUCAUGCUUUUGUUUUUACAUGAGGAUCACCCAUGUCGCUAGAAGGGACUAAAGAUU [JR_ExcNG2_Sub012] (Eterna round: R96, puzzle: Exclusion NG 2) , please?
35

Could you do the same for CGCUGGACAGGAUAUGUUCUUGGGCACUUGAGGAUCACCCAAGUCAUCAAAAACUCAGGCACAGAAGGGUUUAUGG [salish99_ex5_r4_019] (Eterna round: R97, puzzle: Exclusion 5) , please?
176

Could you do the same for AUAAUGUGAGGAUAUCAGUCGACUAGCUUCGGCUAGUCGACUGAGAAGGCACAUGAGGAUCACCCAUGUGUUUC [E4/15-A1] (Eterna round: R97, puzzle: Exclusion 4) , please?
18.7

Could you do the same for CAUUUCUGUCGUUGAUCCAACAUGAGGAUCACCCAUGUCUCUUUAGCUUUUUGCUCGUCUUAUCCUCCUUUGUUCAC [JR_STOV1_Sub099] (Eterna round: R97, puzzle: Sensor, turn-off variant 1) , please?
835

Could you do the same for UAAUAGAUGGUUAGGAUAUGCUGGCCUAGGCCGCGGCAGAAGGAACAUGAGGAUCACCCAUGUAGUAGGAUCCA [Eternabot (L2) Solution 15] (Eterna round: R97, puzzle: Brourd's mod of Exclusion 4) , please?
98.6

Could you do the same for AAGCAACAUGAGGAUCACCCAUGUUAGGAUAUACGCAUGCAUGCAUGCAUGCAUGCAAGUAGAAGGAACCAUGC [Design #15] (Eterna round: R97, puzzle: Exclusion 1) , please?
49

Could you do the same for UAUCGGGACUGAGGAUAUUCGUUCGAACACGAAGAAGAAGGUAGUGUCAGGGACAUGAGGAUCACCCAUGUGAUCUCAGUCCUA [JL ViennaUCT Erinle mod 2] (Eterna round: R96, puzzle: Exclusion NG 1) , please?
100

Could you do the same for GCACGGAGUGUAGGAUAUCUGUGCGAUUAGCUCAGAGAAGGACACAUGAGGAUCACCCAUGUGUUCCAGCGAAAGCUUCCGUGC [Eli exng1 - 047] (Eterna round: R96, puzzle: Exclusion NG 1) , please?
10.6

Could you do the same for CAGUACUGAGGAUAUACAUGAGGAUCACCCAUGUGAAAUGCAUAGGAAACUAUGCUAUGUAGAAGGCAGUACUG [Eli x3 4.03] (Eterna round: R97, puzzle: Exclusion 3) , please?
18.5
